System: fli1:EGFP zebrafish embryos
EXPERIMENT_DESCRIPTION: fli1:EGFP zebrafish embryo exposure: survival and intersegmental vessel development
Format: in vivo
EXPERIMENTAL_CONTEXT: 10 μg/mL, 24 hours after exposure
PROPERTY_LABEL: survival

>>> observed_measurement("CCN(CC)CCNC(=O)c1c(C)[nH]c(/C=C2\\C(=O)Nc3ccc(F)cc32)c1C")
"61.90%"
>>> observed_measurement("COc1cc2c(Nc3ccc(Br)cc3F)ncnc2cc1OCC1CCN(C)CC1")
"60%"
>>> observed_measurement("CNC(=O)c1ccccc1Sc1ccc2c(/C=C/c3ccccn3)n[nH]c2c1")
"40%"
>>> observed_measurement("O=C1c2c(F)c(F)c(F)c(F)c2C(=O)N1c1ccc(F)cc1F")
"50%"
>>> observed_measurement("CNC(=O)c1cc(Oc2ccc(NC(=O)Nc3ccc(Cl)c(C(F)(F)F)c3)cc2)ccn1")
"18.18%"

Source: paper PMC4957076
